# TARGET_SYSTEM: T1, CTLA4-Fc (Fitzgerald, #30R-CD152) (human, UniProt P16410 38-152)
# T1 construct: Bought; also called human CTLA-4 (Fitzgerald); biotinylated-CTLA4; not shown: Fc part of the bought fusion, not described
# T1 sequence (P16410 38-152 limits assumed): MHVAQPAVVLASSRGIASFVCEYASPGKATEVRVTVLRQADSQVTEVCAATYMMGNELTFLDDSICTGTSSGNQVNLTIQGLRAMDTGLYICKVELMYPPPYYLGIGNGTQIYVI
# ASSAY_INFO: SPR on immobilised CTLA4-Fc and CD28-Fc
Answer each item with its documented Kd binding ratio ([Kd for CD28]/[Kd for CTLA-4]).
Just the number, please, no unit after it.

Data request: Please indicate Kd binding ratio ([Kd for CD28]/[Kd for CTLA-4]) recorded for human wild-type CD86 (monomeric soluble extracellular domain) (ligand, also called wild type protein) APLKIQAYFNETADLPCQFANSQNQSLSELVVFWQDQENLVLNEVYLGKEKFDSVHSKYMGRTSFDSDSWTLRLHNLQIKDKGLYQCIIHHKKPTGMIRIHQMNSELSVLA
Data returned: 1.6

Data request: Please indicate Kd binding ratio ([Kd for CD28]/[Kd for CTLA-4]) recorded for CD86 mutant 906 (ligand, Variant of the CD86 extracellular domain) LKIQAYINETADLPCQFANSQNLSLSELVVFWQDQENLVLNEVYLGKERFDSVDSKYMGRTSFDSDSWTLRLHNLQIKDKGFYQCIIHHKKPTGLVKIHEMNSELSVLA
Data returned: 0.8

Data request: Please indicate Kd binding ratio ([Kd for CD28]/[Kd for CTLA-4]) recorded for CD86 mutant 915 (ligand, Variant of the CD86 extracellular domain) LKIQAYFNETADLPCQFANSQNQSLSELVVFWQDQENLILNEVYLGKEKFDSVDSKYMGRTSFDSDSWTLRLHNLQIKDKGFYQCIIHHKKPSGLIKIHQMDSELSVLA
Data returned: 1.9

Data request: Please indicate Kd binding ratio ([Kd for CD28]/[Kd for CTLA-4]) recorded for CD86 mutant 938 (ligand, Variant of the CD86 extracellular domain) LKIQAYFNETADLPCQFANSQNQSLSELVVFWQDQENLILNEVYLGKEKFDSVHSKYMGRTSFDSDSWTLRLHNLQIKDKGIYQCIIHHKKPTGMVKIHQMNSELSVLA
Data returned: 5.5

Data request: Please indicate Kd binding ratio ([Kd for CD28]/[Kd for CTLA-4]) recorded for CD86 mutant 907 (ligand, Variant of the CD86 extracellular domain) LKIQAYFNETADLPCQFANSQNQSLSELVVFWQDQENLVLNEVYLGKEKFDSVHSKYMGRTSFDSDSWTLRLHNLQIKDKGLYQCIIHHKKPTGMIKIHEMNSELSVLA
Data returned: 5.6

Data request: Please indicate Kd binding ratio ([Kd for CD28]/[Kd for CTLA-4]) recorded for CD86 mutant 910 (ligand, Variant of the CD86 extracellular domain) LKIQAYFNETADLPCQFANSQNQSLSELVVFWQDQENLVLNEVYLGKEKFDSVDSKYMGRTSFDSDSWTLRLHNLQIKDKGIYQCIIHHKKPTGMVKIHEMNSELSVLA
Data returned: 5.1

Data request: Please indicate Kd binding ratio ([Kd for CD28]/[Kd for CTLA-4]) recorded for CD86 mutant 908 (ligand, Variant of the CD86 extracellular domain) LKIQAYFNETADLPCQFANSQNQSLSELVVFWQDQENLVLNEVYLGKEKFDSVHSKYMGRTSFDSDSWTLRLHNLQIKDKGIYQCIIHHKKPTGMVKIHEMNSELSVLA
Data returned: 4.7

Data request: Please indicate Kd binding ratio ([Kd for CD28]/[Kd for CTLA-4]) recorded for CD86 mutant 904 (ligand, Variant of the CD86 extracellular domain) LKIQAYFNETADLPCQFANSQNQSLSELIVFWQDQENLVLNEVYLGKERFDAVDSKYMGRTSFDSDSWTLRLHNLQIKDKGIYQCIIHHKKPSGMVKIHQMDSELSVLA
Data returned: 6.8

Data request: Please indicate Kd binding ratio ([Kd for CD28]/[Kd for CTLA-4]) recorded for CD86 mutant 901 (ligand, Variant of the CD86 extracellular domain) LKIQAYFNETADLPCQFANSQNLTLSELVVFWQDQENLVLNEVYLGKEKFDSVHSKYMGRTSFDSDSWTLRLHNLQIKDKGIYQCVIHHKKPTGMIKIHEMNSELSVLT
Data returned: 2.7
